Dear all, this message contains Ki results, target or system Oxytocin receptor (Homo sapiens, UniProt P30559).
QUANTITY KIND: Ki (nM)

CC[C@H](C)[C@@H]1NC(=O)[C@H](Cc2ccc(O)cc2)NC(=O)[C@@H](N)CSSC[C@@H](C(=O)N2CCC[C@H]2C(=O)N(C)[C@@H](CC(C)C)C(=O)N(C)CC(N)=O)NC(=O)[C@H](CC(N)=O)NC(=O)[C@H](CCC(N)=O)NC1=O :: 10.7
CC[C@H](C)[C@@H]1NC(=O)[C@H](Cc2ccc(O)cc2)NC(=O)[C@@H](N)CSSC[C@@H](C(=O)N2CCC[C@H]2C(=O)N[C@@H](CC(C)C)C(=O)NCC(N)=O)N(C)C(=O)[C@H](CC(N)=O)NC(=O)[C@H](CCC(N)=O)NC1=O :: 1.05
CC[C@H](C)[C@@H]1NC(=O)[C@H](Cc2ccc(O)cc2)NC(=O)[C@@H](NC)CSSC[C@@H](C(=O)N2CCC[C@H]2C(=O)N[C@@H](CC(C)C)C(=O)NCC(N)=O)N(C)C(=O)[C@H](CC(N)=O)NC(=O)[C@H](CCC(N)=O)NC1=O :: 98.6
